Values from patent US20230285583A1

# assayed-system: T1, human GIP receptor (human, UniProt P48546 22-466)
# T1 sequence (looked up): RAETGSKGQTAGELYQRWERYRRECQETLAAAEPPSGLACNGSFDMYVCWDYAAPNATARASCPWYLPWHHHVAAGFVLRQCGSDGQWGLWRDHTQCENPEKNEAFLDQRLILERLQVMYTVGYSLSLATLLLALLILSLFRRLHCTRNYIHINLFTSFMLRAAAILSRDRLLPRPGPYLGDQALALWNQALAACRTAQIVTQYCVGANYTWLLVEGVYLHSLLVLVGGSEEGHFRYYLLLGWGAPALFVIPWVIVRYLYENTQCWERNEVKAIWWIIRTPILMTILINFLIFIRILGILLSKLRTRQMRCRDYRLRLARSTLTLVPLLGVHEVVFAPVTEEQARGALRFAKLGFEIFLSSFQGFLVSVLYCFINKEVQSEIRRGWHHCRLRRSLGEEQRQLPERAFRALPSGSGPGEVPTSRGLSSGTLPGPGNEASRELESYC
# assay-method-text: cell-based or functional assay
Bridge positions count the residues as written; N and C are the ends. Square brackets hold non-standard residues; d marks the D form. Ends that are not written are not given here. * marks the point of attachment. Acetyl(2-(4-imidazolyl)) = O=C(Cc1c[nH]cn1)*; Aib = CC(C)(N)C(=O)O
# key: entry, value: In Vitro Activity Compared to Native Peptide (%) vs. GIP (relative titer from cAMP EC50)
outcome-measure: In Vitro Activity Compared to Native Peptide (%) vs. GIP (relative titer from cAMP EC50)

>  <binder>
{Acetyl(2-(4-imidazolyl))}-[Aib]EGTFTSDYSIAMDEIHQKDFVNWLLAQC (lactam 15-19) [trigonal agonist of SEQ ID NO: 36]

>  <reported>
0.4

$$$$
>  <binder>
H[Aib]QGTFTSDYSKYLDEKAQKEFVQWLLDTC (bridge 16-20; not fully specified (bridges)) [trigonal agonist of SEQ ID NO: 3]

>  <reported>
0.8

$$$$
>  <binder>
H[Aib]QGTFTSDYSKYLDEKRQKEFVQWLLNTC (bridge 16-20; not fully specified (bridges)) [trigonal agonist of SEQ ID NO: 12]

>  <reported>
0.1

$$$$
>  <binder>
Y[Aib]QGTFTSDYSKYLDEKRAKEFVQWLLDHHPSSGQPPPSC (lactam 16-20) [trigonal agonist of SEQ ID NO: 9]

>  <reported>
7.8

$$$$
>  <binder>
H[Aib]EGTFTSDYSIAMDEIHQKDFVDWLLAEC (bridge 16-20; not fully specified (bridges)) [trigonal agonist of SEQ ID NO: 15]

>  <reported>
0.1

$$$$
